Attribution: paper PMC4937820

# System: MZ-CRC-1 (RET (M918T)) versus HEK293 cells
# test_summary: Cell POP (proof of principle) proliferation assay, MZ-CRC-1 vs HEK293 control
# Format: cell-based, human
# particulars: IC50 HEK293 control cells divided by IC50 MZ-CRC-1 cells
Recorded Toxicity Margin for the following compounds
Entry rule: numbers only, all in ×.

Reference set, count: 3
COc1cc2nccc(Oc3ccc(NC(=O)NC4CC4)c(Cl)c3)c2cc1C(N)=O
141
CC(C)c1cc(-c2n[nH]c(=O)n2-c2ccc3c(ccn3C)c2)c(O)cc1O
0.7
CNC(=O)c1cc(Oc2ccc(NC(=O)Nc3ccc(Cl)c(C(F)(F)F)c3)cc2)ccn1
13

Give me measured Toxicity Margin, please, for this compound: CCN(CC)CCNC(=O)c1c(C)[nH]c(/C=C2\C(=O)Nc3ccc(F)cc32)c1C
28
